Experiment: A CellTox Green Cytotoxicity Assay to monitor cytotoxicity in HepG2 cells - 16 hour (AID 1224876); further: nearly all actives have a fitted effect of over 45% in size
Settings: CellTox Green fluorescence; series mostly up to 76.8 µM
Results filed as inconclusive are left out. Calls of active or inactive are those of the source. The call rests on the fitted dose curve; in most records, active means well fitted activation curve with a large enough effect in the repeat runs; inconclusive means weak or mixed curves; inactive means flat fitted curve, though single readings scatter.
Bench note: report the call from active, inactive

Prompt: What is the recorded call for this molecule in the test? CNC(=O)c1cc(Oc2ccc(NC(=O)Nc3ccc(Cl)c(C(F)(F)F)c3)cc2)ccn1
Completion: inactive

Prompt: Dear colleague, could you share the recorded outcome for CC(=O)Nc1ccc(O)cc1 when you have a moment?
Completion: inactive

Prompt: Status in this test for Cc1cccc(N(C)C)c1 ?
Completion: inactive

Prompt: Recorded test call requested for COc1cc(C(=O)NS(=O)(=O)c2ccccc2C)ccc1Cc1cn(C)c2ccc(NC(=O)OC3CCCC3)cc12
Completion: inactive

Prompt: Entry O=C[C@H](O)[C@H](O)[C@H](O)CO : call = ?
Completion: inactive

Prompt: Which outcome did this test record for the molecule Cc1ccc(O)cn1 ?
Completion: inactive

Prompt: For CC(C)=CCCC(C)CCOC(=O)C(C)C (configuration not stated) , which call appears in the assay record?
Completion: inactive

Prompt: Per the records of this test, what outcome belongs to Cn1cccc1 ?
Completion: inactive

Prompt: Look up the recorded call for COC(=O)NCCC[Si](OC)(OC)OC in this test.
Completion: inactive

Prompt: I would be grateful if you could indicate the recorded call for CCN(CC)CCOC(=O)C1(C2CCCCC2)CCCCC1 .
Completion: active

Prompt: What is the recorded call for this molecule in the test? c1ccc(Nc2cccc3ccccc23)cc1
Completion: inactive

Prompt: I'd appreciate the recorded outcome for C=CC(C)(CCC=C(C)C)OC(=O)/C=C/c1ccccc1 (configuration not stated) from this test.
Completion: active

Prompt: Record request — test call for CCCCN(C)C
Completion: inactive

Prompt: What outcome does the record of this test show for Cc1cn[nH]c1 ?
Completion: inactive

Prompt: What did the test return for CCOC(=O)COc1ccc(C)cc1 ?
Completion: inactive

Prompt: Record request — test call for C[C@@]12C(=O)OC(=O)[C@]1(C)C1CCC2O1
Completion: active

Prompt: Record request — test call for CCC1(c2cnc[nH]2)Cc2ccccc2C1
Completion: inactive

Prompt: Hi, do you know how CCCCCCCC/C=C\CCCCCCCC(=O)OCCOC(=O)CCCCCCC/C=C\CCCCCCCC came out in this test?
Completion: inactive

Prompt: // param item: O=C(O)CC(=O)O ; yields the recorded call
Completion: inactive

Prompt: # fetch the recorded call for Cc1cccc(C)c1NC(=O)CN1CCN(CCCC(c2ccc(F)cc2)c2ccc(F)cc2)CC1 here
Completion: active

Prompt: Which outcome was assigned to C[Si](C)O[Si](C)C in this test?
Completion: inactive

Prompt: Recorded test outcome, item COc1nccnc1CC(C)C
Completion: inactive

Prompt: Call for entry C1CC(COCC2CO2)CCC1COCC1CO1 (configuration not stated) :
Completion: inactive

Prompt: Please share the test call associated with O=C1OC(OC(=O)c2cccnc2Nc2cccc(C(F)(F)F)c2)c2ccccc21 (configuration not stated) .
Completion: inactive

Prompt: For this molecule, state the assay outcome: Cc1cccc(C)n1
Completion: inactive

Prompt: Returns: the outcome recorded for CCCCCCCC/C=C\CCCCCCCC(=O)N(C)CC(=O)O in this assay.
Completion: inactive

Prompt: What did the test return for Clc1ccccc1CN1CCc2sccc2C1 ?
Completion: inactive

Prompt: Dear colleague, could you share the recorded outcome for CCOC(=O)N1CCC(=C2c3ccc(Cl)cc3CCc3cccnc32)CC1 when you have a moment?
Completion: inactive

Prompt: Record lookup: outcome of this test for CO[Si](CCC1CCC2OC2C1)(OC)OC (configuration not stated) ?
Completion: inactive

Prompt: Recorded test call requested for CO[Si](CCCNCCNCCN)(OC)OC
Completion: inactive

Prompt: What classification did Brc1ccccn1 end up with in this test?
Completion: inactive

Prompt: Write down the call the test reported for this molecule. Item: CC(C)(C)c1cc(CCC(=O)NCCCCCCNC(=O)CCc2cc(C(C)(C)C)c(O)c(C(C)(C)C)c2)cc(C(C)(C)C)c1O
Completion: inactive

Prompt: Given Clc1cccnc1 , state the outcome it received in this test.
Completion: inactive

Prompt: Could you check what this test reported for CC(C)c1ccccc1N ?
Completion: inactive

Prompt: Call for entry CC[N+](CC)(CC)Cc1ccccc1 :
Completion: inactive

Prompt: How was C=CC(C)C#N (configuration not stated) classified in this test?
Completion: inactive

Prompt: What call does the record list for O=C1C=CC(=O)N1c1ccccc1 ?
Completion: active

Prompt: Name the outcome recorded for CC1(C)C(=O)N(Br)C(=O)N1Br in the assay.
Completion: inactive

Prompt: Called result for CCc1ccc(O)c(C(C)(C)C)c1
Completion: active

Prompt: Which result was noted for this molecule in the test: CCc1c(Br)c(Br)c(Br)c(Br)c1Br
Completion: inactive

Prompt: Outcome logged for COC(=O)CC(C)CCC=C(C)C (configuration not stated) in this assay:
Completion: inactive

Prompt: Returns: the outcome recorded for C=CC(=O)OCCC#N in this assay.
Completion: inactive

Prompt: Each molecule tested received a call. Report the one for CC=O .
Completion: active

Prompt: # outcome recorded in this test, key = CCCCCCCCCCCCCc1ccccc1
Completion: inactive

Prompt: // param item: O=CC1CC1 ; yields the recorded call
Completion: inactive

Prompt: // outcome(item) with item = C=CC(=O)OCC(O)COc1ccccc1 (configuration not stated)
Completion: inactive

Prompt: Short answer needed: outcome of this test for S=P(N1CC1)(N1CC1)N1CC1 ?
Completion: inactive

Prompt: Give the logged outcome of this assay for the following molecule: CC(C)(C)c1n[nH]c(=O)n(N)c1=O
Completion: inactive

Prompt: # lookup: test call for O=C1c2c(O)ccc([N+](=O)[O-])c2C(=O)c2c([N+](=O)[O-])ccc(O)c21
Completion: inactive

Prompt: Just curious, what result did CCO[Si](CCCSSSSCCC[Si](OCC)(OCC)OCC)(OCC)OCC get here?
Completion: inactive

Prompt: For CC(C)(c1cc(Br)c(OCCO)c(Br)c1)c1cc(Br)c(OCCO)c(Br)c1 , what call appears in the results of this test?
Completion: inactive

Prompt: Which result was noted for this molecule in the test: COc1ccc(-n2nc(CCC(=O)N(C)O)cc2-c2ccc(Cl)cc2)cc1
Completion: inactive

Prompt: Call for entry O=Nc1ccc(NO)cc1 :
Completion: inactive

Prompt: Entry COC(=O)[C@]1(C)CCC[C@@]2(C)[C@H]1CC=C1C=C(C(C)C)CC[C@@H]12 : call = ?
Completion: active

Prompt: What did the test return for CCCC(C)CCC(C)=O (configuration not stated) ?
Completion: inactive

Prompt: Field: outcome | Entry: CCOCN(C(=O)CS(=O)(=O)O)c1c(C)cccc1CC
Completion: inactive

Prompt: Query: recorded result category for CCOC(=O)CC(C)O (configuration not stated) in this test
Completion: inactive
